- Target entity: Human KLKB1 (Homo sapiens (Human), UniProt P03952)
- Sequence (P03952 391-638 limits assumed): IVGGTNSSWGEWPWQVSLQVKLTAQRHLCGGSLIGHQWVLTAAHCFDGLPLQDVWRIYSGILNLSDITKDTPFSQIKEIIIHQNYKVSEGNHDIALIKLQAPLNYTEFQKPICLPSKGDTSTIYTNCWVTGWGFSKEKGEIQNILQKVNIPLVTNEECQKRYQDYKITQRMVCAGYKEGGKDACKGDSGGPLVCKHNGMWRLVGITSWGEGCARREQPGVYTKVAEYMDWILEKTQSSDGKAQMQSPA
- Sequence (P03952 20-390 partner limits assumed): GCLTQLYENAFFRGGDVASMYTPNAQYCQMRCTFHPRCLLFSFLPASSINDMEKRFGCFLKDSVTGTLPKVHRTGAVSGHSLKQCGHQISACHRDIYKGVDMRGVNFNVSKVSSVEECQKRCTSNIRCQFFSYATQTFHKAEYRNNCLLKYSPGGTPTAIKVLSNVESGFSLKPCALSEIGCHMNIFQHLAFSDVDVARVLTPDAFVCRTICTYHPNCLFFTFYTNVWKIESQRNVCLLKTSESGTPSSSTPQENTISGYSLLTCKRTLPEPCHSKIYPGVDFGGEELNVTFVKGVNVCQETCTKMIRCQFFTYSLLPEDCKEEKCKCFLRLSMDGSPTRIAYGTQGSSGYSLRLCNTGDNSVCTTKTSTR
- Test summary: KLKB1 kallikrein activity inhibition assay (chromogenic substrate S-2302)
- Type: biochemical
Result type: IC50

For COC(=O)c1n[nH]c(NC(=O)c2ccc(C)cc2)n1 the molecule record lists IC50 as > 100 µM

###

// reported pIC50 per item
- Target entity: Human thrombin (Homo sapiens (Human), UniProt P00734)
- Test summary: Thrombin protease activity inhibition assay (chromogenic substrate S-2238)
- Type: biochemical
- Measurement setup: 3 nM thrombin, 125 μM S-2238, 10 min pre-incubation, RT
pIC50: −log10 of the molar value.

{"columns": ["Record smiles", "Recorded measurement"],
 "data": [
  ["O=c1c(-c2cc(NCc3ccc(Cl)s3)[nH]n2)cccn1Cc1ccsc1", "5.00 to 6.00"],
  ["O=C(c1ccco1)n1nc(-c2cccn(Cc3ccccn3)c2=O)cc1NCc1ccc(F)cc1", "> 7.00"],
  ["CC(C)(C)OC(=O)Cn1cccc(-c2cc(NCc3ccc(Cl)s3)n(C(=O)C(C)(C)C)n2)c1=O", "> 7.00"],
  ["O=C(c1ccoc1)n1nc(-c2cccn(Cc3ccco3)c2=O)cc1NCc1ccc(Cl)s1", "> 7.00"],
  ["O=C(c1ccsc1)n1nc(-c2cccn(Cc3ccco3)c2=O)cc1NCc1ccc(Cl)s1", "> 7.00"]
]}

So the reported pIC50 for COCC(C)(C)C(=O)n1nc(-c2cccn(Cc3ccncc3)c2=O)cc1NCc1ccc(Cl)s1 , on Human thrombin (Homo sapiens (Human), UniProt P00734), turned out to be > 7.00

So the reported pIC50 for COc1ccccc1C(=O)n1nc(-c2cccn(Cc3ccccc3Cl)c2=O)cc1NCc1ccc(Cl)s1 , on Human thrombin (Homo sapiens (Human), UniProt P00734), turned out to be > 7.00

So the reported pIC50 for CC(C)(C)OC(=O)Cn1cccc(-c2cc(NCc3ccc(Cl)s3)[nH]n2)c1=O , on Human thrombin (Homo sapiens (Human), UniProt P00734), turned out to be < 4.00

So the reported pIC50 for COCC(C)(C)C(=O)n1nc(-c2ccc[nH]c2=O)cc1NCc1ccc(Cl)s1 , on Human thrombin (Homo sapiens (Human), UniProt P00734), turned out to be > 7.00

###

- Target entity: Human KLKB1 (Homo sapiens (Human), UniProt P03952)
- Test summary: KLKB1 kallikrein activity inhibition assay (chromogenic substrate S-2302)
- Assay type: biochemical
- Measurement setup: Table C
Result type: IC50

# annotated cases, reported IC50 shown
{"columns": ["Compound", "IC50"],
 "data": [
  ["COc1ccc(CNc2nc(-c3ccccn3)nn2C(=O)CC(C)C)cc1 [Cmpd 322]", "10 to 100 µM"],
  ["O=C(c1ccco1)n1nc(-c2ccncc2)nc1NCc1ccccc1 [Cmpd 400]", "1 to 10 µM"],
  ["COc1ccccc1C(=O)n1nc(-c2ncccn2)nc1NCc1ccccc1 [Cmpd 18]", "0.1 to 1 µM"],
  ["COc1ccccc1C(=O)n1nc(-c2cccs2)nc1NCc1ccccc1 [Cmpd 398]", "1 to 10 µM"]
]}

We now examine a further compound.
For CC(C)C(=O)n1nc(-c2ccncc2)nc1NCc1ccccc1 [Cmpd 351] the compound record lists IC50 as 1 to 10 µM
